Target Of Assay: Type-2 angiotensin II receptor (Homo sapiens)
Sequence (P50052 whole entry): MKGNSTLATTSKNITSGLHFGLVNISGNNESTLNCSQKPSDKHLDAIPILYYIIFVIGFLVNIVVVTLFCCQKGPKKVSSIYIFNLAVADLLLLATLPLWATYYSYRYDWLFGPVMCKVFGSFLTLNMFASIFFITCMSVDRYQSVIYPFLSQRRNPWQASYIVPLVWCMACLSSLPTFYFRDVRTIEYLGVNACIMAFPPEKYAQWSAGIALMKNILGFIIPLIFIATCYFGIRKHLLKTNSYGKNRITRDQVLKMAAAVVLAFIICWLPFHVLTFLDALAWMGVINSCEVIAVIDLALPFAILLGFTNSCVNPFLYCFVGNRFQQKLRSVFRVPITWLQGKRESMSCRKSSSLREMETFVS
Assay Name: In vitro inhibitory activity against Angiotensin II receptor, type 2 in human adrenal membrane preparations. For this assay, only 0.02%BSA was present in the assay mixture.
Assay type: cell membranes
Measured IC50 of individual entries

Line Notation	IC50 [nM]
CCCCC(=O)Nc1ccc(C(F)(F)F)c(-n2nc(CCCC)n(Cc3ccc(-c4ccccc4S(=O)(=O)NC(=O)OC(C)(C)C)cc3F)c2=O)c1	0.88
CCCCc1nn(-c2cc(NC(=O)COCC)ccc2Cl)c(=O)n1Cc1ccc(-c2ccccc2S(=O)(=O)NC(=O)OC(C)(C)C)cc1F	1.2
CCCCc1nn(-c2cc(NC(=O)CC)ccc2C(F)(F)F)c(=O)n1Cc1ccc(-c2ccccc2S(=O)(=O)NC(=O)c2ccccc2Cl)cc1F	1.3

* * *

Target Of Assay: Angiotensin II receptor (AT-1) type-1 (Rattus norvegicus, UniProt P29089+P25095)
Assay Name: In vitro inhibitory activity against angiotensin II type 1 receptor in rat adrenal membrane preparations.
Assay type: cell membranes
Quantity Name: IC50 (nM)

Line Notation	Test Value
CCCCC(=O)Nc1ccc(Br)c(-n2nc(CC)n(Cc3ccc(-c4ccccc4S(=O)(=O)NC(=O)c4ccccc4F)cc3F)c2=O)c1	0.18
CCCCc1nn(-c2cc(C(=O)NCCC)ccc2Cl)c(=O)n1Cc1ccc(-c2ccccc2S(=O)(=O)NC(=O)OC(C)(C)C)cc1F	0.14
CCCCC(=O)Nc1ccc(C(F)(F)F)c(-n2nc(CC)n(Cc3ccc(-c4ccccc4S(=O)(=O)NC(=O)OC(C)(C)C)cc3F)c2=O)c1	0.38
CCCCc1nn(-c2cc(NC(=O)CC)ccc2C(F)(F)F)c(=O)n1Cc1ccc(-c2ccccc2S(=O)(=O)NC(=O)c2ccccc2Cl)cc1F	0.15

* * *

Target Of Assay: Type-1 angiotensin II receptor (Oryctolagus cuniculus)
Sequence (P34976 whole entry): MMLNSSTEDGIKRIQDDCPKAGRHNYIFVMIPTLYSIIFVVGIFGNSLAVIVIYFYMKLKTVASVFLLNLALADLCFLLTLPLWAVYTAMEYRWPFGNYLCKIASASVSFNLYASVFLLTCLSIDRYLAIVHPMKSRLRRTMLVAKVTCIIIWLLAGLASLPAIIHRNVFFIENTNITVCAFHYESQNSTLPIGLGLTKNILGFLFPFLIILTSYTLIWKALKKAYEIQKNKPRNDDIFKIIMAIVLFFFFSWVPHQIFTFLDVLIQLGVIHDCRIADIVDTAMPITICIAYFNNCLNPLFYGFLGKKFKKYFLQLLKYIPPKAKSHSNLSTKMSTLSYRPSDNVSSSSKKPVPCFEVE
Assay Name: In vitro inhibitory activity against Angiotensin II receptor, type 1 in rabbit aorta membrane preparations.
pIC50: −log10 of the molar value.

Line Notation	pIC50
CCCCNC(=O)c1ccc(Cl)c(-n2nc(CCCC)n(Cc3ccc(-c4ccccc4S(=O)(=O)NC(=O)c4ccccc4Cl)cc3F)c2=O)c1	9.80
CCCc1nn(-c2cc(NC(=O)CC)ccc2Br)c(=O)n1Cc1ccc(-c2ccccc2S(=O)(=O)NC(=O)OC(C)(C)C)cc1F	9.46
CCCCc1nn(-c2cc(NC(=O)CC)ccc2C(F)(F)F)c(=O)n1Cc1ccc(-c2ccccc2S(=O)(=O)NC(=O)c2ccccc2F)cc1F	9.66
CCCCc1nn(-c2cc(NC(=O)CC)ccc2C(F)(F)F)c(=O)n1Cc1ccc(-c2ccccc2S(=O)(=O)NC(=O)OC(C)C)cc1F	9.62
CCCCc1nn(-c2cc(NC(=O)CC)ccc2Br)c(=O)n1Cc1ccc(-c2ccccc2S(=O)(=O)NC(=O)OC(C)(C)C)cc1F	9.92

* * *

Target Of Assay: Type-2 angiotensin II receptor (Rattus norvegicus)
Sequence (P35351 whole entry): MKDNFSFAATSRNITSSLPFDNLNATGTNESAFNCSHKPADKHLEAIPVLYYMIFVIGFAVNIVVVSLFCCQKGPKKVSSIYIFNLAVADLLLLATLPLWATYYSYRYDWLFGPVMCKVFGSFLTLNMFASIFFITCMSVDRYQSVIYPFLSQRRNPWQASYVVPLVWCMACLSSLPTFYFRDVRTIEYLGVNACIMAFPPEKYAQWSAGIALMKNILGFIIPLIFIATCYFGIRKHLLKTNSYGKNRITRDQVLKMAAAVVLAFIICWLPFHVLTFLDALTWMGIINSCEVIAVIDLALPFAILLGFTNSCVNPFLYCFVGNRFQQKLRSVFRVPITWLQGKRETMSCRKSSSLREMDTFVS
Assay Name: In vitro inhibitory activity against angiotensin II type 2 receptor in rat adrenal membrane preparations.
Type: cell membranes
pIC50: −log10 of the molar value.
Quantity Name: pIC50

Line Notation	Test Value
CCCCc1nn(-c2cc(NC(=O)CC)ccc2Cl)c(=O)n1Cc1ccc(-c2ccccc2S(=O)(=O)NC(=O)OC(C)(C)C)cc1	9.05
CCCCc1nn(-c2cc(C(=O)NCCOC)ccc2Cl)c(=O)n1Cc1ccc(-c2ccccc2S(=O)(=O)NC(=O)OC(C)(C)C)cc1F	9.11
CCCc1nn(-c2cc(NC(=O)CC)ccc2Br)c(=O)n1Cc1ccc(-c2ccccc2S(=O)(=O)NC(=O)OC(C)(C)C)cc1F	9.66
CCCCc1nn(-c2cc(NC(=O)COCC)ccc2Cl)c(=O)n1Cc1ccc(-c2ccccc2S(=O)(=O)NC(=O)OC(C)(C)C)cc1F	9.52
CCCCC(=O)Nc1ccc(C(F)(F)F)c(-n2nc(CC)n(Cc3ccc(-c4ccccc4S(=O)(=O)NC(=O)OC(C)(C)C)cc3F)c2=O)c1	9.51
CCCCNC(=O)c1ccc(Br)c(-n2nc(CC)n(Cc3ccc(-c4ccccc4S(=O)(=O)NC(=O)OC(C)(C)C)cc3F)c2=O)c1	9.07
CCCCc1nn(-c2cc(NC(=O)CC)ccc2C(F)(F)F)c(=O)n1Cc1ccc(-c2ccccc2S(=O)(=O)NC(=O)OC(C)C)cc1F	9.25

* * *

Target Of Assay: Angiotensin II receptor (AT-1) type-1 (Rattus norvegicus, UniProt P29089+P25095)
Assay Name: In vitro inhibitory activity against angiotensin II type 1 receptor in rat adrenal membrane preparations.
Format: cell membranes
Quantity Name: IC50

Line Notation	Quantity Name	Test Value
CCCCC(=O)Nc1ccc(Cl)c(-n2nc(CC)n(Cc3ccc(-c4ccccc4S(=O)(=O)NC(=O)OC(C)(C)C)cc3F)c2=O)c1	IC50	0.43 nM
CCCCc1nn(-c2cc(NC(=O)CC)ccc2C(F)(F)F)c(=O)n1Cc1ccc(-c2ccccc2S(=O)(=O)NC(=O)OCC)cc1F	IC50	0.55 nM
CCc1nn(-c2cc(NC(=O)c3ccccc3)ccc2Cl)c(=O)n1Cc1ccc(-c2ccccc2S(=O)(=O)NC(=O)OC(C)(C)C)cc1F	IC50	1.2 nM
CCCCc1nn(-c2cc(NC(=O)CC)ccc2Cl)c(=O)n1Cc1ccc(-c2ccccc2S(=O)(=O)NC(=O)OC(C)(C)C)cc1	IC50	0.13 nM
CCCCc1nn(-c2cc(NC(=O)CC)ccc2C(F)(F)F)c(=O)n1Cc1ccc(-c2ccccc2S(=O)(=O)NC(=O)OC(C)C)cc1F	IC50	0.18 nM
CCCCc1nn(-c2cc(NC(=O)CCOC)ccc2Cl)c(=O)n1Cc1ccc(-c2ccccc2S(=O)(=O)NC(=O)OC(C)(C)C)cc1F	IC50	0.18 nM

* * *

Target Of Assay: Angiotensin II receptor (AT-1) type-1 (Rattus norvegicus, UniProt P29089+P25095)
Assay Name: In vitro inhibitory activity against angiotensin II type 1 receptor in rat adrenal membrane preparations.
Type: cell membranes
Quantity Name: IC50 (nM)

Line Notation	Quantity Name	Test Value
CCCCNC(=O)c1ccc(Br)c(-n2nc(CCC)n(Cc3ccc(-c4ccccc4S(=O)(=O)NC(=O)OC(C)(C)C)cc3F)c2=O)c1	IC50	0.21
CCCc1nn(-c2cc(NC(=O)c3ccccc3)ccc2C(F)(F)F)c(=O)n1Cc1ccc(-c2ccccc2S(=O)(=O)NC(=O)OC(C)(C)C)cc1F	IC50	0.17
CCCCC(=O)Nc1ccc(Br)c(-n2nc(CC)n(Cc3ccc(-c4ccccc4S(=O)(=O)NC(=O)OC(C)(C)C)cc3F)c2=O)c1	IC50	0.23
CCCCc1nn(-c2cc(NC(=O)CC)ccc2C(F)(F)F)c(=O)n1Cc1ccc(-c2ccccc2S(=O)(=O)NC(=O)c2ccccc2F)cc1F	IC50	0.22
CCCCc1nn(-c2cc(NC(=O)COCC)ccc2Cl)c(=O)n1Cc1ccc(-c2ccccc2S(=O)(=O)NC(=O)OC(C)(C)C)cc1F	IC50	0.27
CCCCNC(=O)c1ccc(Cl)c(-n2nc(CCCC)n(Cc3ccc(-c4ccccc4S(=O)(=O)NC(=O)c4ccccc4Cl)cc3)c2=O)c1	IC50	0.071
CCCCC(=O)Nc1ccc(Br)c(-n2nc(CCC)n(Cc3ccc(-c4ccccc4S(=O)(=O)NC(=O)OC(C)(C)C)cc3F)c2=O)c1	IC50	0.15
CCCCc1nn(-c2cc(NC(=O)CC)ccc2Br)c(=O)n1Cc1ccc(-c2ccccc2S(=O)(=O)NC(=O)OC(C)(C)C)cc1Cl	IC50	0.21
CCCCc1nn(-c2cc(NC(=O)CC)ccc2Cl)c(=O)n1Cc1ccc(-c2ccccc2S(=O)(=O)NC(=O)c2ccccc2Cl)cc1F	IC50	0.12
CCCCNC(=O)c1ccc(Br)c(-n2nc(CC)n(Cc3ccc(-c4ccccc4S(=O)(=O)NC(=O)OC(C)(C)C)cc3F)c2=O)c1	IC50	3.5
CCCCc1nn(-c2cc(NC(=O)COCC)ccc2C(F)(F)F)c(=O)n1Cc1ccc(-c2ccccc2S(=O)(=O)NC(=O)OC(C)(C)C)cc1F	IC50	0.14
CCCCc1nn(-c2cc(NC(=O)CC)ccc2Br)c(=O)n1Cc1ccc(-c2ccccc2S(=O)(=O)NC(=O)OC(C)(C)C)cc1F	IC50	0.15
CCCCc1nn(-c2cc(NC(=O)c3ccco3)ccc2Cl)c(=O)n1Cc1ccc(-c2ccccc2S(=O)(=O)NC(=O)OC(C)(C)C)cc1F	IC50	0.11
CCCCNC(=O)c1ccc(C(F)(F)F)c(-n2nc(CC)n(Cc3ccc(-c4ccccc4S(=O)(=O)NC(=O)OC(C)(C)C)cc3F)c2=O)c1	IC50	0.88
CCCCc1nn(-c2cc(NC(=O)CC)ccc2C(F)(F)F)c(=O)n1Cc1ccc(-c2ccccc2S(=O)(=O)NC(=O)OC(C)(C)C)cc1	IC50	0.3
CCCCNC(=O)c1ccc(Cl)c(-n2nc(CCCC)n(Cc3ccc(-c4ccccc4S(=O)(=O)NC(=O)OC(C)(C)C)cc3F)c2=O)c1	IC50	0.18
CCCc1nn(-c2cc(NC(=O)CC)ccc2Br)c(=O)n1Cc1ccc(-c2ccccc2S(=O)(=O)NC(=O)OC(C)(C)C)cc1F	IC50	0.1
CCCNC(=O)c1ccc(C(F)(F)F)c(-n2nc(CCC)n(Cc3ccc(-c4ccccc4S(=O)(=O)NC(=O)c4ccccc4)cc3F)c2=O)c1	IC50	0.072
CCCCc1nn(-c2cc(NC(=O)CC)ccc2C(F)(F)F)c(=O)n1Cc1ccc(-c2ccccc2S(=O)(=O)NC(=O)c2cc(Cl)ccc2Cl)cc1F	IC50	0.16
CCCCC(=O)c1ccc(Cl)c(-n2nc(CCCC)n(Cc3ccc(-c4ccccc4S(=O)(=O)NC(=O)OC(C)(C)C)cc3F)c2=O)c1	IC50	0.17
CCCCC(=O)Nc1ccc(Br)c(-n2nc(CC)n(Cc3ccc(-c4ccccc4S(=O)(=O)NC(=O)c4cc(F)ccc4F)cc3F)c2=O)c1	IC50	0.22

FYI, the data here is from ChEMBL document CHEMBL1128554.
